Tested on: CAKI-1 renal
Assay: NCI-60 one-dose screen, 48 h
Details: 10 µM unless noted
Protocol: Growth inhibition of the CAKI-1 human tumor cell line is measured as a screen for anti-cancer activity. Cells are grown in 96 well plates and exposed to the test compound for 48 hours. Compounds are tested at a single concentration, which is 10^-5 M for most compounds. The reported endpoint is percent growth (GI% or GIPRCNT), where numbers from 0 - 100% represent growth inhibition, and numbers from -100% - 0 represent cell death. For example, a value of 40 represents 60% growth inhibition. […]
This is part of a sample that, as a whole, favours compounds with a hit. Of some 83,000 tested, about 20% had one in any assay. Activity calls are given as the source filed them. Rule for the calls: active = growth percent below 10; inactive = the rest.
API: response.call in active, inactive

1. COc1cc(C2CC(c3ccc(C(F)(F)F)cc3)=Nc3c(N)nc(N)nc3N2)ccc1Oc1nc(Nc2ccc(F)cc2)nc(N(C)C)n1 (centres undefined)	inactive
2. Cc1nn(-c2ccccc2)c2ncn(CC(=O)N/N=C/c3ccccc3O)c(=O)c12	inactive
3. CCOC(=O)c1ccc(NC(=S)NC(=O)c2ccc(NC(=O)C(C)C)cc2OC)cc1	inactive
4. Cc1ccc(C(C(=O)NC2CCCCC2)N(Cc2ccccc2Cl)C(=O)c2ccc(CN3CCOCC3)o2)o1 (centres undefined)	inactive
5. FC(F)(F)CN1CCN(CCn2c(C(F)(F)F)cc3c(Cl)ncnc32)CC1	inactive

(Q) Recorded test call requested for CS(=O)(=O)Nc1cc(-c2ccc3ncnc(N4CCc5cc(F)c(Cl)cc54)c3c2)cnc1Cl
(A) active

(Q) Note, next up: O=C(NN1C(=O)/C(=C/C=C/c2ccc([N+](=O)[O-])o2)SC1=S)c1ccc([N+](=O)[O-])cc1
(A) active

* * *

System: ACHN renal
Assay: NCI-60 one-dose screen, 48 h (100 = growth as untreated, 0 = no growth, -100 = all killed)
Settings: 10 µM unless noted
This is part of a sample that, as a whole, favours compounds with a hit. Of some 83,000 tested, about 20% had one in any assay. Active and inactive are the calls of the source. How the source made its calls: active means growth percent below 10; inactive means the rest.
ASSAY ENDPOINT: growth

As a guide, the following entries are already answered.
1. CC1=C(C)C(=O)C(N2CCSCC2)=CC1=O	96.6% (inactive)
2. O=C(c1cc2cc(OCCCN3CCC3)ccc2[nH]1)N1C[C@@H](CCl)c2c1cc(OCc1ccccc1)c1ccccc21	-96.8% (active)
3. O=C(Cn1c(-c2ccccc2)nc2ccccc21)N=Nc1c(O)[nH]c2ccc(Cl)cc12	-47.3% (active)
4. O=C1CCC(N2C(=O)c3cccc(NCCOCCOCCOCCC(=O)NCCCC(=O)NC(c4ccc5c(c4)OCO5)c4cc(Cl)c5cccnc5c4O)c3C2=O)C(=O)C1 (stereo not drawn)	89.3% (inactive)
5. Cc1nc2sccn2c1-c1nnc(SCc2ccccc2)o1	92.6% (inactive)
6. COc1c(B(O)O)cc(F)cc1-c1nc2c(F)cc3[nH]ncc3c2c2c1CCCC2	4.28% (active)

(Q) Param readout = growth; param system = ACHN renal; param query = Cc1ccc2c(c1)nc(-c1ccccc1)n2CC(=O)N=Nc1c(O)[nH]c2ccc(Cl)cc12 ; response: value
(A) -89.5% (active)

(Q) Note, next up: N/C(=N\c1nc2ccccc2s1)NC(=O)Nc1ccccc1F
(A) 47.8% (inactive)

(Q) Note, next up: CN(C(=O)CN1C(=O)/C(=C/c2ccco2)SC1=S)C1CCS(=O)(=O)C1 (stereo not drawn)
(A) 106% (inactive)

(Q) Note, next up: O=C1NC(=NC23CC4CC(CC(C4)C2)C3)N/C1=C\c1ccc2ncccc2c1
(A) 4.48% (active)

(Q) Note, next up: Clc1ccc(-c2nc3ccc(-c4nnc(SCc5ccccc5)o4)cc3[nH]2)cc1
(A) 45% (inactive)

(Q) Note, next up: COc1ccc2[nH]cc(-c3cc(N)n4nc(-c5c[nH]c6ccccc56)cc4n3)c2c1
(A) 8.14% (active)

(Q) Note, next up: CN1C(=O)C(O)(CC(=O)c2cc3ccccc3oc2=O)c2ccccc21 (stereo not drawn)
(A) 98.1% (inactive)

(Q) Note, next up: Cn1cc(-c2cc(N)n3nc(-c4c[nH]c5ccccc45)cc3n2)c2cc(Br)ccc21
(A) -87.7% (active)

(Q) Note, next up: N#CC1=C(c2ccco2)Nc2c(c(-c3ccccc3)nn2-c2ccccc2)C12C(=O)Nc1ccc(Br)cc12 (stereo not drawn)
(A) 49.3% (inactive)

(Q) Note, next up: COc1ccc(C(=O)c2c(N)c(C#N)cn2-c2ccc([N+](=O)[O-])cc2)cc1
(A) 106% (inactive)

(Q) Note, next up: Cn1cc(-c2cc(N)n3nc(-c4c[nH]c5ccccc45)cc3n2)c2cc(Cl)ccc21
(A) -75.6% (active)

(Q) Note, next up: Cn1ncc2c(N)nc(Oc3ccccc3-c3ccccc3)nc21
(A) 51.6% (inactive)

(Q) Note, next up: COc1ccc2c(c1)C(Sc1ccc(F)cc1)c1c(nc(N)c(C#N)c1N)O2 (stereo not drawn)
(A) 86.6% (inactive)
